# TEST_DETAILS: Acute toxicity in the mouse
# CONDITION_SET: in vivo, po
MEASURE_NAME: LD50 at 168 h (mg/kg)

[[record]]
molecule = "Cc1cccc(Nc2ncccc2C(=O)OCCN2CCOCC2)c1C [Example 1, β-Morpholino ethyl nixylate]"
unit_string = "mg/kg"
data_value = 1600


====

percentage increase of pain threshold by entry:
# TEST_DETAILS: Analgesic activity: Randall and Selitto's test (beer yeast paw, pain threshold)
# Assay type: in vivo, rat
# CONDITION_SET: without yeast; 128 mg/kg orally
MEASURE_NAME: percentage increase of pain threshold (%)

[[record]]
compound = "Cc1cccc(Nc2ncccc2C(=O)OCCN2CCOCC2)c1C [Example 1, β-Morpholino ethyl nixylate]"
unit_string = "%"
data_value = 101

[[record]]
compound = "Cc1cccc(Nc2ncccc2C(=O)OCCN2CCN(C)CC2)c1C [Example 4, β-(N-methylpiperazino)ethyl nixylate]"
unit_string = "%"
data_value = 38

[[record]]
compound = "Cc1cccc(Nc2ncccc2C(=O)OCC(C)(C)N(C)C)c1C [Example 3, 2-Dimethylamino-2-methylpropyl nixylate]"
unit_string = "%"
data_value = 11

[[record]]
compound = "Cc1cccc(Nc2ncccc2C(=O)OCCN2CCCCC2)c1C [Example 2, β-Piperidino ethyl nixylate]"
unit_string = "%"
data_value = 52

